# maps each entry to its z-score
test: compound effects on multiple myeloma cell viability – MM1S, calcein-AM fluorescence, 48 h, basal, profiling panel (AID 1165); conditions: higher = more signal; further: test concentration not given here
endpoint-label: z-score

# molecule, readout-number
rows = [
    ("COCCn1c(C(=O)N(C)C)cc2c1C[C@H]1CN(C(=O)c3ccccc3)[C@@](Cc3ccc(OC)cc3)(C(=O)OC)[C@@H]21", -0.479),
    ("C=CCC(OC(C)=O)[C@@H]1[C@@H](N(Cc2cc3ccccc3o2)C(=O)Cc2ccc(OC)cc2)c2cc(OCCCO)ccc2N1C(=O)c1ccc2ccccc2n1 (some centres not stated)", 0.307),
    ("O=C1O[C@@H](c2ccccc2)[C@@H](c2ccccc2)N2[C@@H](c3ccccc3OCCO)[C@]3(C(=O)Nc4ccc(C#CCCO)cc43)[C@@H](C(=O)NC[C@H](O)c3ccccc3)[C@H]12", 0.16),
    ("CC(C)[Si](C#CCCc1ccccc1)(O[C@H](c1ccccc1)c1cn(Cc2ccccc2)nn1)C(C)C", -0.505),
    ("COCCOC(=O)N1C(=O)[C@@]2(c3cc(C#Cc4ccc(OC)cc4)ccc31)[C@H](c1ccc(OCCO)cc1)N1[C@H](c3ccccc3)[C@H](c3ccccc3)OC(=O)[C@H]1[C@@H]2C(=O)NC[C@H](O)c1ccccc1", -0.291),
    ("COc1ccc([Si](C)(C)[C@H]2[C@H](CCO)O[C@@]3(C(=O)N(Cc4cccc(N(C=O)c5ccccc5)c4)c4ccccc43)[C@@H]2C)cc1", -1.18),
    ("CC(C)C(=C=CC[C@H](O)c1ccccc1OCCO)C[C@H](O)COCc1ccccc1", -2.9),
]

----------
# maps each entry to its z-score
experiment: JC-1 mitochondrial signal, unstimulated myeloma cells – cell-based, JC-1 fluorescence, RPMI8226, 24 h, 100 nL compound, profiling panel (AID 1169); settings: JC-1 mitochondrial potential fluorescence, higher = more signal; further: test concentration not given here
endpoint-label: z-score

# molecule, endpoint-label, readout-number
rows = [
    ("CC1CC/C=C\\[C@H]2OC34C=CCN(Cc5ccccc5)C(=O)[C@H]3N(CCCCCCO)C(=O)[C@@H]4C2C(=O)O1 (stereo not given in full)", "z-score", 0.62),
    ("COCCOC(=O)N1C(=O)[C@@]2(c3ccccc31)[C@H](C(=O)N1CCN(c3ncccn3)CC1)[C@H]1C(=O)O[C@H](c3ccccc3)[C@H](c3ccccc3)N1[C@@H]2c1ccccc1OCCO", "z-score", -0.248),
    ("C=CCC(OC(C)=O)[C@@H]1[C@@H](N(Cc2cc3ccccc3o2)C(=O)c2cccc3ccccc23)c2cc(OCCCO)ccc2N1C(=O)c1ccc2ccccc2n1 (stereo not given in full)", "z-score", -0.211),
    ("COc1ccc([Si](C)(C)[C@@H]2[C@@H](CC(=O)N(CCO)Cc3ccccc3)O[C@]3(C(=O)N(Cc4ccc(N5C(=O)c6cccc7cccc5c67)cc4)c4ccccc43)[C@H]2C)cc1", "z-score", -1.02),
    ("COc1cc(OC)c(C(O)C2C=CC3C(=O)N(c4ccccc4)C(=O)C3N2Nc2ccc(C(C)C)cc2)cc1Br (stereo not given)", "z-score", -0.126),
]

----------
# maps each entry to its composite z-score
tested on: wheat germ agglutinin (Triticum aestivum), Alexa647-labelled; assay: Alexa647-WGA lectin binding to printed small molecules – biochemical, small-molecule microarray, 635/667 nm fluorescence, artefact control for SMM control-protein annotation, profiling panel (AID 1140); conditions: WGA-A647 binding, 635 nm fluorescence, higher = more signal;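 further: score merges 667 nm feature emission with signal to noise over triplicate slides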

# compound, composite z-score
data = [
    ("COC(=O)[C@H](Cc1ccccc1)N1CC2=CCCC=C[C@@H]2[C@H]1[C@H](O)Cc1ccccc1", 0.261),
    ("COC(=O)C1(Cc2ccccc2)C=C2C(=C(C)C(=O)C2C)CN1 (stereo not drawn)", 0.622),
    ("CC(C)N1C(=O)c2ccccc2[C@@H](C(=O)NCC(F)(F)F)[C@@H]1c1ccc(CO)cc1", -0.348),
    ("[N-]=[N+]=Nc1ccccc1[C@H]1OC(c2ccc(OCCCO)cc2)=N[C@@]1(Cc1ccccc1)C(=O)NCC(O)CO (stereo partly drawn)", 0.966),
    ("COc1ccccc1CN1C(=O)c2ccccc2[C@](Cc2ccccc2I)(C(=O)NCC(C)C)[C@@H]1c1ccc(CO)cc1", 0.0043),
    ("COCCOC(=O)N1C(=O)[C@@]2(c3cc(C#CCCO)ccc31)[C@H](c1ccccc1OCCO)N1[C@H](c3ccccc3)[C@H](c3ccccc3)OC(=O)[C@H]1[C@@H]2C(N)=O", 0.246),
    ("CC1CC/C=C\\[C@H]2OC34C=CCN(Cc5ccccc5)C(=O)[C@H]3N(CCCCCCO)C(=O)[C@@H]4C2C(=O)O1 (stereo partly drawn)", -0.51),
    ("COc1ccc([Si](C)(C)[C@@H]2[C@@H](CC(=O)N(CCO)Cc3ccccc3)O[C@]3(C(=O)N(Cc4ccc(I)cc4)c4ccccc43)[C@H]2C)cc1", -0.0349),
    ("CC(C)N1C(=O)c2ccccc2[C@](C)(C(=O)NCC(F)(F)F)[C@@H]1c1ccc(CO)cc1", 0.594),
    ("O=C1c2ccccc2[C@@]2(Cc3ccccc3N(Cc3ccccc3)C2=O)[C@H](c2ccc(CO)cc2)N1Cc1ccccc1Cl", -0.45),
    ("[N-]=[N+]=Nc1ccccc1C[C@]1(C(=O)N2CCOCC2)N=C(c2ccc(OCCCO)cc2)O[C@H]1c1ccccc1N=[N+]=[N-]", 0.97),
    ("O=C1O[C@@H](c2ccccc2)[C@@H](c2ccccc2)N2[C@@H](c3ccc(OCCO)cc3)[C@]3(C(=O)Nc4ccc(C#CCCO)cc43)[C@@H](C(=O)O)[C@H]12", 1.14),
    ("CC(C)(C)N1CC=CC23O[C@@H]4/C=C\\CCCOC(=O)C4[C@H]2C(=O)N(CCCO)[C@@H]3C1=O (stereo partly drawn)", -1.38),
    ("NC(=O)NCC#Cc1ccc2c(c1)[C@]1(C(=O)N2)[C@H](c2ccc(OCCO)cc2)N2[C@H](c3ccccc3)[C@H](c3ccccc3)OC(=O)[C@H]2[C@@H]1C(=O)O", 1.22),
    ("O=C1C2C=CC(C(O)C3CCCCC3)N(n3cnnc3)C2C(=O)N1Cc1ccccc1 (stereo not drawn)", 1.26),
    ("COc1ccc([Si](C)(C)[C@H]2[C@H](CC(=O)N3Cc4ccccc4C[C@H]3CO)O[C@@]3(C(=O)N(C)c4ccccc43)[C@@H]2C)cc1", 0.938),
    ("CCCC=C(CCC)[C@@H](NC(=O)c1ccc(C(F)(F)F)cc1)c1ccc(C(F)(F)F)cc1", 1.38),
    ("N#Cc1ccc(C(O)C2C=CC3C(=O)NC(=O)C3N2Nc2ccc(Cl)cc2Cl)cc1 (stereo not drawn)", 1.08),
]
